FYI, the data here is from ChEMBL document CHEMBL1201862.

study-system: Corticotropin-releasing factor receptor 2/Corticotropin-releasing factor-binding protein (Homo sapiens, UniProt P24387+Q13324)
Sequence (Q13324 whole entry): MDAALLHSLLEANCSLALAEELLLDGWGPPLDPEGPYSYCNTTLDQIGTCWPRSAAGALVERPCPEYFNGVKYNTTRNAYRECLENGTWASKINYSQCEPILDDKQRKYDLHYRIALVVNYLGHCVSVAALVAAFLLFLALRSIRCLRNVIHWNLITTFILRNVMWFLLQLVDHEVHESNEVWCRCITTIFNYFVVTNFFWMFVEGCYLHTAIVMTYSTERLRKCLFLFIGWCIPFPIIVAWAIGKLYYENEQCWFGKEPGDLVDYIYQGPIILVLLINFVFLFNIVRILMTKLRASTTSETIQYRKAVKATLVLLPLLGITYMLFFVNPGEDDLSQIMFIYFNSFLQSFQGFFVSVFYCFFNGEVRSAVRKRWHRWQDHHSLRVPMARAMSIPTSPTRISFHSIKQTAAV
Sequence (P24387 whole entry): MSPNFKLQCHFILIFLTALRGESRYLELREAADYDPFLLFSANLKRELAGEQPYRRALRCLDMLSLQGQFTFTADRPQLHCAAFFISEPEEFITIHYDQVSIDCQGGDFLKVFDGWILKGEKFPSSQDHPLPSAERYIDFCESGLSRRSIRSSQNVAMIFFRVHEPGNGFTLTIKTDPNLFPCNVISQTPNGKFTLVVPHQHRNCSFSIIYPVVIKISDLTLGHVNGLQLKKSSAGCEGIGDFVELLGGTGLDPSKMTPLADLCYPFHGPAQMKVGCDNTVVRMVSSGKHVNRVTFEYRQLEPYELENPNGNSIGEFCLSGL
experiment: Dose Response confirmation of uHTS hits for small molecule antagonists of the CRF-binding protein and CRF-R2 receptor complex.
Format: functional
condition-summary: read-out: IC50_Mean
The source made the active and inactive calls. Cut-off read from the data, not from the text of the source: actives have a measured IC50 and inactives only a lower limit.
property: IC50

q: Determine from records and report IC50 for N#Cc1c(N)nc(SC2CCCCC2=O)c(C#N)c1-c1ccco1 (stereo unspecified)
a: < 0.368 µM (active)

q: Determine from records and report IC50 for `Cn1cccc1Cc1nnc(SCC(=O)N2CCN(c3ccccc3)CC2)n1-c1ccc(F)cc1`
a: > 47.1 µM (inactive)

q: Determine from records and report IC50 for `N#C/C(=C\c1cccn1-c1ccccc1)C(=O)NC1CCCCC1`
a: > 47.1 µM (inactive)

q: Determine from records and report IC50 for `Cc1noc(C)c1COC(=O)c1cc(C)n(-c2ccccc2)c1C`
a: 6.04 µM (active)

q: Determine from records and report IC50 for `COc1cc(/C=N/c2c(C)cc(C)cc2C)ccc1OC(C)=O`
a: > 47.1 µM (inactive)

q: Determine from records and report IC50 for `CCCn1nc(C(=O)Nc2cc(S(=O)(=O)Nc3ccc(OC)cc3)ccc2O)c2ccccc2c1=O`
a: > 47.1 µM (inactive)

q: Determine from records and report IC50 for `Cc1c(OCC(=O)NCCN2CCOCC2)ccc2c3c(c(=O)oc12)CCC3`
a: > 47.1 µM (inactive)

q: Determine from records and report IC50 for COc1ccccc1S(=O)(=O)N1CCn2cccc2C1C (stereo unspecified)
a: > 47.1 µM (inactive)

q: Determine from records and report IC50 for `CC(=O)Cc1cc(O)c2ccccc2c1OC(=O)c1ccc(Br)cc1`
a: > 47.1 µM (inactive)

q: Determine from records and report IC50 for `Cc1nnc(NC(=O)CSc2nnc(Cc3ccccc3)n2-c2ccccc2)s1`
a: > 47.1 µM (inactive)

q: Determine from records and report IC50 for O=C(CC(NC(=O)OCc1ccccc1)C(=O)OCc1ccccc1)OCc1ccccc1 (stereo unspecified)
a: > 47.1 µM (inactive)
